Molecular target: AHR (Homo sapiens)
Sequence (P35869 11-848): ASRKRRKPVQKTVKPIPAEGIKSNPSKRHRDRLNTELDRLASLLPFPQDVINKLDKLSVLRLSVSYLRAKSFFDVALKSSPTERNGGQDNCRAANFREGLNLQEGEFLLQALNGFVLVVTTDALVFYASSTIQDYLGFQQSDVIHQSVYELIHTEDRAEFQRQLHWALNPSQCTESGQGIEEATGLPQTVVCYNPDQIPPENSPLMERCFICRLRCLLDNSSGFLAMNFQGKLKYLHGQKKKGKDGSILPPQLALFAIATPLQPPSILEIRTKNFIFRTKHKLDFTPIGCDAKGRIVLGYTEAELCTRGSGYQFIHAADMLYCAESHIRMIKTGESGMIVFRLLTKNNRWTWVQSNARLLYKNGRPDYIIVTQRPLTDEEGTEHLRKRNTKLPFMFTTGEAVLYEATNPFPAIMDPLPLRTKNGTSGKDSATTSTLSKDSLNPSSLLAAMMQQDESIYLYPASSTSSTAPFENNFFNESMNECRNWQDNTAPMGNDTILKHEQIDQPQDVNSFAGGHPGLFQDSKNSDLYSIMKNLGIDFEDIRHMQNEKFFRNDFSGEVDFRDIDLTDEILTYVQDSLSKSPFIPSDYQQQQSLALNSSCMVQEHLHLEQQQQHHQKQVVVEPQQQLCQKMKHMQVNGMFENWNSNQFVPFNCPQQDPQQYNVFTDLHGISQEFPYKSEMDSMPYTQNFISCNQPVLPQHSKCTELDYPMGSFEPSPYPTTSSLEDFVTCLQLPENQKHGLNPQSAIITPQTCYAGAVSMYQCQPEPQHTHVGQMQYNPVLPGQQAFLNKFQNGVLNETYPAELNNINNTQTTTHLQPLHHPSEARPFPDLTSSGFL
Experiment: In vitro assay 1: AHR-luc transactivation assay, antagonism in human cell line (U87 glioblastoma cells, kynurenic acid prestimulated)
Type: cell-based
Parameters: U87 glioblastoma cells (ATCC) endogenously expressing AHR; host or cells: U87 glioblastoma cells, stably transfected with DRE-firefly luciferase and renilla reporter constructs only
Settings: firefly luciferase DRE reporter, 150 μM kynurenic acid, 20 hours, read-out: Assay 1: AHR-luc Hum Antagonism IC50

>  <compound>
C[C@@H](CS(C)(=O)=O)NC(=O)c1cc(-c2ccc(Cl)cc2)nn(-c2cccc(F)c2)c1=O

>  <display unit>
µM

>  <IC50>
0.147

$$$$
>  <compound>
O=C(N[C@@H]1CS(=O)(=O)C[C@@H]1O)c1cc(-c2ccc(C(F)(F)F)cc2)nn(-c2cccnc2)c1=O (relative stereo) [Example 16]

>  <display unit>
µM

>  <IC50>
0.0292

$$$$
>  <compound>
O=C(N[C@@H]1C[S+]([O-])C[C@@H]1O)c1cc(-c2ccc(Cl)cc2)nn(-c2cccc(F)c2)c1=O (single isomer, unassigned; (+)) [Example 27]

>  <display unit>
µM

>  <IC50>
0.0935

$$$$
>  <compound>
C[C@@H](C[S+](C)[O-])NC(=O)c1cc(-c2ccc(C(F)(F)F)cc2)nn(-c2cnn(C)c2)c1=O (mixture of isomers) [Example 23]

>  <display unit>
µM

>  <IC50>
0.00537

$$$$
>  <compound>
C[C@@H](CS(C)(=N)=O)NC(=O)c1cc(-c2ccc(Cl)cc2)nn(-c2cccc(F)c2)c1=O (mixture of isomers) [Example 6]

>  <display unit>
µM

>  <IC50>
0.232

$$$$
>  <compound>
CS(=N)(=O)CCNC(=O)c1cc(-c2ccc(Cl)cc2)nn(-c2cccc(F)c2)c1=O (single isomer, unassigned) [Example 54]

>  <display unit>
µM

>  <IC50>
0.581

$$$$
>  <compound>
O=C(N[C@@H]1C[S+]([O-])C[C@@H]1O)c1cc(-c2ccc(Cl)cc2)nn(-c2cccc(F)c2)c1=O (single isomer, unassigned; (-)) [Example 28]

>  <display unit>
µM

>  <IC50>
0.0134

$$$$
>  <compound>
O=C(N[C@H]1CS(=O)(=O)C[C@H]1O)c1cc(-c2ccc(Cl)cc2)nn(-c2cccc(F)c2)c1=O (racemic) [Example 55]

>  <display unit>
µM

>  <IC50>
0.0265

$$$$
>  <compound>
CSC[C@H](C)NC(=O)c1cc(-c2ccc(Cl)cc2)nn(-c2cccc(F)c2)c1=O

>  <display unit>
µM

>  <IC50>
0.0526

$$$$
>  <compound>
C[C@@H](CS(C)(=N)=O)NC(=O)c1cc(-c2ccc(Cl)cc2)nn(-c2cccc(F)c2)c1=O (single isomer, unassigned) [Example 7]

>  <display unit>
µM

>  <IC50>
0.241

$$$$
>  <compound>
C[C@@H](C[S+](C)[O-])NC(=O)c1cc(-c2ccc(Cl)cc2)nn(-c2cccc(F)c2)c1=O (single isomer, unassigned) [Example 4]

>  <display unit>
µM

>  <IC50>
0.0402

$$$$
>  <compound>
CSC[C@H](C)NC(=O)c1cc(-c2ccc(C(F)(F)F)cc2)nn(-c2cnn(C)c2)c1=O

>  <display unit>
µM

>  <IC50>
0.00699

$$$$
>  <compound>
O=C(N[C@@H]1CS(=O)(=O)C[C@@H]1O)c1cc(-c2ccc(C(F)(F)F)cc2)nn(-c2cnsc2)c1=O (single isomer, unassigned) [Example 11]

>  <display unit>
µM

>  <IC50>
0.00346

$$$$

Values from patent US11459312B2
